- assay-protocol: RORgamma Gal4 Reporter Gene Assay (REN): Cells were incubated for additional 16 h before renilla (REN) luciferase activities were measured sequentially in the same cell extract using a Dual-Light-Luciferase-Assay system (Dyer et al., Anal. Biochem. 2000, 282:158). All experiments were done at least in triplicates.
Recorded IC50 values for a group of molecules are listed next.
property: IC50 (nM)

{"compound-structure": "CC(C)(O)CNC(=O)c1nc(CC2CCC2)c(-c2ccc(S(=O)(=O)NC(C)(C)C)c(Cl)c2OC(F)F)s1", "units-of-measure": "nM", "value-prefix": "=", "readout-value": 39.8}
{"compound-structure": "CC(C)(C)NS(=O)(=O)c1ccc(-c2sc(S(N)(=O)=O)nc2CC2CCCCC2)cc1C(C)(C)C", "units-of-measure": "nM", "value-prefix": "=", "readout-value": 251}
{"compound-structure": "CCC(C)(C)NS(=O)(=O)c1ccc(-c2sc(C(=O)NCc3ncc(S(C)(=O)=O)s3)nc2C(=O)N2CCC(C)CC2)c(Cl)c1C", "units-of-measure": "nM", "value-prefix": "=", "readout-value": 20}
{"compound-structure": "CC(C)(O)CNC(=O)c1nc(CC2CCCCC2)c(-c2ccc(S(N)(=O)=O)c(Cl)c2Cl)s1", "units-of-measure": "nM", "value-prefix": "<", "readout-value": 20000}

----------
- assay-protocol: RORgamma Gal4 Reporter Gene Assay (REN): Cells were incubated for additional 16 h before renilla (REN) luciferase activities were measured sequentially in the same cell extract using a Dual-Light-Luciferase-Assay system (Dyer et al., Anal. Biochem. 2000, 282:158). All experiments were done at least in triplicates.
property: log10 of IC50 (log10 of the value in nM)

{"compound": "CC(C)(C)NS(=O)(=O)c1ccc(-c2sc(C(=O)NC3CCC3)nc2CC2CCCCC2)c(OC(F)(F)F)c1", "property": "log10 of IC50", "readout-value": 0.80}
{"compound": "CC(C)(C)NS(=O)(=O)c1ccc(-c2sc(C(=O)NC3CCS(=O)(=O)CC3)nc2CC2CCC2)c2ccccc12", "property": "log10 of IC50", "readout-value": 0.60}
{"compound": "CC(C)(C)NS(=O)(=O)c1ccc(-c2sc(C(=O)NC3CCC(C(=O)O)C3)nc2CC2CCCCC2)c2ccccc12 (stereo not drawn)", "property": "log10 of IC50", "readout-value": 0.60}
{"compound": "CC1CCN(C(=O)c2nc(C(=O)NCC(C)(C)O)sc2-c2ccc(S(=O)(=O)NCC(C)(C)O)c3ccccc23)CC1", "property": "log10 of IC50", "readout-value": 3.20}
{"compound": "CC(C)(C)c1cc(-c2sc(C(=O)NC3CC(OC=O)C3)nc2CC2CCCCC2)nc(C2(C)CC2)n1 (stereo not drawn)", "property": "log10 of IC50", "readout-value": 2.30}
{"compound": "CC(C)(C)NS(=O)(=O)c1ccc(-c2nc(C(=O)NC34CCC(C(=O)O)(CC3)CC4)oc2CC2CCCCC2)c2ccccc12", "property": "log10 of IC50", "readout-value": 1.60}
{"compound": "CC(C)(C)NS(=O)(=O)c1cnc(-c2sc(C(=O)N[C@H]3C[C@H](C(=O)O)C3)nc2CC2CCCCC2)nc1C(C)(C)C", "property": "log10 of IC50", "readout-value": 2.60}
{"compound": "CC(C)(C)c1cc(-c2nc(C(N)=O)sc2CC2CCCCC2)cc(C(C)(C)C)c1", "property": "log10 of IC50", "readout-value": 3.20}
{"compound": "CC1CC(C)CN(C(=O)c2nc(C(=O)NCC(C)(C)O)sc2-c2ccc(S(=O)(=O)NC(C)(C)C)c3ccccc23)C1 (stereo not drawn)", "property": "log10 of IC50", "readout-value": 2.10}
{"compound": "CC(C)(C)NS(=O)(=O)c1ccc(-c2sc(C(=O)NC34CCC(C(=O)O)(CC3)CC4)nc2CC2CCCCC2)c2ccccc12", "property": "log10 of IC50", "readout-value": 0.80}
{"compound": "CC(C)(C)c1cc(-c2nc(C(=O)NC3CCS(=O)(=O)CC3)oc2CC2CCCCC2)cc(C2(C)CC2)c1", "property": "log10 of IC50", "readout-value": 2.40}
{"compound": "O=CO[C@H]1C[C@H](NC(=O)c2nc(CC3CCCCC3)c(-c3ccc(OC(F)(F)F)c4ccccc34)s2)C1", "property": "log10 of IC50", "readout-value": 2.10}
{"compound": "COC(c1nc(C(=O)N[C@H]2C[C@H](C(=O)O)C2)sc1-c1cc(C(C)(C)C)cc(C2(C)CC2)c1)C1CCCCC1 (stereo partly drawn)", "property": "log10 of IC50", "readout-value": 2.00}
{"compound": "CC(C)(C)NS(=O)(=O)c1ccc(-c2sc(C(=O)NCC3(C(=O)O)CCOCC3)nc2CC2CCCCC2)c(Cl)c1Cl", "property": "log10 of IC50", "readout-value": 1.60}
{"compound": "COCC(C)(C)NS(=O)(=O)c1ccc(-c2sc(C(=O)N3CC4(CCS(=O)(=O)CC4)C3)nc2CC2CCCCC2)c2ccccc12", "property": "log10 of IC50", "readout-value": 1.60}
{"compound": "CC(C)(C)NS(=O)(=O)c1ccc(-c2sc(C(=O)NC3CCS(=O)(=O)CC3)nc2CC2CCCCC2)c2ccccc12", "property": "log10 of IC50", "readout-value": 0.00}
{"compound": "Cc1c(C(=O)NC(C)(C)C)cc(-c2sc(C(=O)N[C@H]3C[C@H](C(=O)O)C3)nc2CC2CCCCC2)cc1C1(C)CC1", "property": "log10 of IC50", "readout-value": 2.20}
{"compound": "O=C(c1nc(CC2CCCCC2)c(-c2ccc(S(=O)(=O)NC3CS(=O)(=O)C3)c3ccccc23)s1)N1CC2(CCS(=O)(=O)CC2)C1", "property": "log10 of IC50", "readout-value": 2.60}

----------
Recorded log10(IC50) values for a group of compounds are listed next.
- assay-protocol: RORgamma Gal4 Reporter Gene Assay (REN): Cells were incubated for additional 16 h before renilla (REN) luciferase activities were measured sequentially in the same cell extract using a Dual-Light-Luciferase-Assay system (Dyer et al., Anal. Biochem. 2000, 282:158). All experiments were done at least in triplicates.
property: log10(IC50) (log10 of the value in µM)

{"compound": "CC(O)c1c(S(=O)(=O)NC(C)(C)C)ccc(-c2sc(C(=O)N3CC4(CCS(=O)(=O)CC4)C3)nc2CC2CCCCC2)c1Cl (configuration not stated)", "readout-value": -0.70}
{"compound": "CC1(c2cc(-c3sc(C(=O)N[C@H]4C[C@H](C(=O)O)C4)nc3CC3CCCCC3)cc(C(F)(F)F)c2)CC1", "readout-value": -1.10}
{"compound": "CC(C)(C)c1cc(-c2nc(C(=O)N[C@H]3C[C@H](OC=O)C3)oc2CC2CCCCC2)cc(C2(C)CC2)c1", "readout-value": -0.60}
{"compound": "CC1CCN(C(=O)c2nc(C(=O)N3CC4(CCOCC4)C3)sc2-c2ccc(S(=O)(=O)NC(C)(C)C)c3ccccc23)CC1", "readout-value": -1.20}
{"compound": "CC(C)(C)NS(=O)(=O)c1ccc(-c2sc(C(=O)NC3COC3)nc2CC2CCCCC2)c(Cl)c1Cl", "readout-value": -2.50}
{"compound": "CC1CCN(C(=O)c2nc(C(=O)NCC(C)(C)O)sc2-c2ccc(S(=O)(=O)N[C@@H](C)C(F)(F)F)c3ccccc23)CC1", "readout-value": -1.70}
{"compound": "CC(C)(C)NS(=O)(=O)c1ccc(-c2sc(C(=O)N[C@H]3C[C@H](C(=O)O)C3)nc2CC2CCCCC2)c(C(F)F)c1Cl", "readout-value": -2.50}

----------
- assay-protocol: RORgamma Gal4 Reporter Gene Assay (REN): Cells were incubated for additional 16 h before renilla (REN) luciferase activities were measured sequentially in the same cell extract using a Dual-Light-Luciferase-Assay system (Dyer et al., Anal. Biochem. 2000, 282:158). All experiments were done at least in triplicates.
pIC50: −log10 of the molar value.

{"compound-structure": "CC(C)(C)NS(=O)(=O)c1ccc(-c2sc(C(=O)NC3CCOCC3)nc2CC2CCCCC2)cc1C(C)(C)O", "value-prefix": "=", "pIC50": 7.70}
{"compound-structure": "CC(C)(C#N)CNC(=O)c1nc(CC2CCCCC2)c(-c2ccc(S(=O)(=O)NC(C)(C)C)c3ccccc23)s1", "value-prefix": "=", "pIC50": 8.70}
{"compound-structure": "CC(=O)NS(=O)(=O)c1nc(-c2cc(C(C)(C)C)cc(C(C)(C)C)c2)c(CC2CCCCC2)s1", "value-prefix": ">", "pIC50": 4.70}
{"compound-structure": "CC(C)(C)NS(=O)(=O)c1ccc(-c2sc(C(=O)N[C@H]3C[C@H](C(=O)O)C3)nc2CC2CCCCC2)cc1C(F)(F)F", "value-prefix": "=", "pIC50": 8.00}

These measurements were taken from ChEMBL document CHEMBL5727000.
